Reference source: patent US8338422B2

test system: PC-3; assay: Cellular proliferation assay (Alamar blue), PC-3; assay type: cell-based; settings: Homo sapiens, PC-3, 72 h, PC-3 cells, 72 hours with compound, 10% FCS, read-out: pIC50 PC-3 (converted)
Answer each item with its documented IC50.

In the examples that follow, each entry is paired with its recorded IC50.
smilesInput	IC50
COc1cc2cc(c1OC)OCCCC(=O)N(C)CCCNc1ncnc3c1/C(=C/N2)C(=O)N3	> 10 µM
CN1CCNc2ncnc3c2/C(=C/Nc2cccc(c2)OCC(=O)N[C@H](Cc2ccccc2)C1)C(=O)N3	> 10 µM
CN1CCCNc2ncnc3c2/C(=C/Nc2ccc(NC(=O)NC4CCCCC4)c(c2)OCCCC1=O)C(=O)N3	1.58 µM

Q. Using the record for CN1CCNC(=O)CCCOc2cccc(c2)N/C=C2\C(=O)Nc3ncnc1c32 , report its IC50.
A. > 10 µM
